Target: T1, human GIP receptor (human) (UniProt P48546)
T1 sequence (looked up): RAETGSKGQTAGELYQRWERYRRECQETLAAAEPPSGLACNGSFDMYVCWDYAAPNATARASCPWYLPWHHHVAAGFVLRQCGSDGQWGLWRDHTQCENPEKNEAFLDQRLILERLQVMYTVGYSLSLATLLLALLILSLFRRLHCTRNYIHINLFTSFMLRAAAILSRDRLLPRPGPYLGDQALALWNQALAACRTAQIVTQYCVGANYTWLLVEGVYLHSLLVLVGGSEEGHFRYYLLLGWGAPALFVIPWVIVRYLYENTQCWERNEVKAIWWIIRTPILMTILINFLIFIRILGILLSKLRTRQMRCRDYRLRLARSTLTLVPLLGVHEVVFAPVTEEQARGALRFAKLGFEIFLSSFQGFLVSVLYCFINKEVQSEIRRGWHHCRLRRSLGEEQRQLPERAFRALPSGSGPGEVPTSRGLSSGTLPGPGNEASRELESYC
Assay: cell-based or functional assay
Starred links: 1 amine or outer side, 2 acyl side, 3 side chain; linkers in the order of their positions; H or OH if unused. Non-standard residues stand in square brackets, D forms with d. Groups on a side chain read outwards from the residue. No end group written: not given here. *: point of attachment. C20 diacid = O=C(O)CCCCCCCCCCCCCCCCCCC(=O)*; Phe(4-CN) = N#Cc1ccc(C[C@H](N)C(=O)O)cc1; αMePhe(2-F) = C[C@](N)(Cc1ccccc1F)C(=O)O; γGlu = O=C(O)[C@H](CCC(=O)[*:2])N[*:1]; AEEA = NCCOCCOCC(=O)O; Aib = CC(C)(N)C(=O)O
# class assignment by measured cAMP Rel EC50, nM (1% HSA): A (below 10 nM), B (10 nM to below 20 nM), C (20 nM or more)

Below, 10 binders whose answers are already recorded.
| BINDER | QUALITATIVE_LABEL |
| --- | --- |
| YXQGTFTSDFSQXLDKKAQXAFIEYLLAGGPSSGAPPPEGS (synthetic construct; SITE 2: note = 2-Aminoisobutyric Acid; SITE 13: note = alpha-methyl-leucine; SITE 17: note = Lysine is chemically modified through conjugation of the epsilon-amino group of the Lysine side chain with (2-[2-(2-Amino-ethoxy)-ethoxy]-acetyl)-(gamma-Glu)-CO-(CH2) 16-CO2H; SITE 20: n) [Example 772] | C |
| Y[Aib]QGT[αMePhe(2-F)]TSD[Phe(4-CN)]SKLLDKIAQK([AEEA-γGlu-C20 diacid])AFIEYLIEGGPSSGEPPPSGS-NH2 [Example 364] | C |
| YXQGTXTSDYSILLDKKAQXAFIEYLEEGGPSSGAPPPSGE (synthetic construct; SITE 2: note = 2-Aminoisobutyric Acid; SITE 6: note = alpha-methyl-2-fluoro-L-phenylalanine; SITE 17: note = Lysine is chemically modified through conjugation of the epsilon-amino group of the Lysine side chain with (gamma-Glu)2-CO-(CH2)16-CO2H; SITE 20: note = 2-Aminoisobutyric) [Example 435] | B |
| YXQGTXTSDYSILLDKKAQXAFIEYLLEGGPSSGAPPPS (not fully specified; synthetic construct; SITE 2: note = 2-Aminoisobutyric Acid; SITE 6: note = alpha-methyl-2-fluoro-L-phenylalanine; SITE 17: note = Lysine is chemically modified through conjugation of the epsilon-amino group of the Lysine side chain with (2-[2-(2-Amino-ethoxy)-ethoxy]-acetyl)2-(gamma-Glu)-CO-(CH2 )18) [Example 385] | A |
| YXQGTFTSDXSXXLDXKAQXXFIEXLLAGGPSSGAPPPSGSEE (non-natural residues; lipidated Lys (γGlu)2-C18 diacid; C-term amide; synthetic construct; SITE 2: note = 2-Aminoisobutyric Acid; SITE 10: note = 3-(4-Pyridyl)-L-alanine; SITE 12: note = L-ornithine; SITE 13: note = alpha-methyl-leucine; SITE 16: note = L-ornithine; SITE 17: note = Lysine is chemically modified through conjugation of the epsilon-amino group of the Lys) [Example 997] | C |
| YXQGTXTSDYXIXLDXKAQXXFIEXLEEGGPSSGEPPPE (synthetic construct; SITE 2: note = 2-Aminoisobutyric Acid; SITE 6: note = alpha-methyl-2-fluoro-L-phenylalanine; SITE 11: note = alpha-methyl-L-serine; SITE 13: note = alpha-methyl-leucine; SITE 16: note = L-ornithine; SITE 17: note = Lysine is chemically modified through conjugation of the epsilon) [Example 402] | C |
| YXQGTXTSDXXIXLDXKAQXXFIEXLQEGGPSSGEPPPE (synthetic construct; SITE 2: note = 2-Aminoisobutyric Acid; SITE 6: note = alpha-methyl-2-fluoro-L-phenylalanine; SITE 10: note = 3-(4-Pyridyl)-L-alanine; SITE 11: note = alpha-methyl-L-serine; SITE 13: note = alpha-methyl-leucine; SITE 16: note = L-ornithine; SITE 17: note = Lysine is chemically mo) [Example 439] | B |
| YXQGTXTSDXXIXLDXKAQXXFIEXLLEGGPSSXEPPPE (synthetic construct; SITE 2: note = 2-Aminoisobutyric Acid; SITE 6: note = alpha-methyl-2-fluoro-L-phenylalanine; SITE 10: note = 3-(4-Pyridyl)-L-alanine; SITE 11: note = alpha-methyl-L-serine; SITE 13: note = alpha-methyl-leucine; SITE 16: note = L-ornithine; SITE 17: note = Lysine is chemically mo) [Example 380] | A |
| Y[Aib]QGT[αMePhe(2-F)]TSDYSKILDKIAQKAFIQYLIEGGPSSGEPPPSEG-NH2 (not fully specified (residue 20)) [Example 354] | C |
| YXQGTFTSDXSQXLDXKAQXAFIEYLIEAGPSSGEPPPSGS (not fully specified; non-natural residues, (γGlu)2-C18 diacid lysine acylation, C-terminal amide; synthetic construct; SITE 2: note = 2-Aminoisobutyric Acid; SITE 10: note = 3-(4-Pyridyl)-L-alanine; SITE 13: note = alpha-methyl-leucine; SITE 16: note = L-ornithine; SITE 17: note = Lysine is chemically modified through conjugation of the epsilon-amino group of the Lysine side chain with (gamma-Gl)) [Example 1019] | C |

Now look at this one.
Task: Any idea which band YXQGTXTSDYSILLDXKAQXAFIEYLEEGGPSSGAPPPS (synthetic construct; SITE 2: note = 2-Aminoisobutyric Acid; SITE 6: note = alpha-methyl-2-fluoro-L-phenylalanine; SITE 16: note = L-ornithine; SITE 17: note = Lysine is chemically modified through conjugation of the epsilon-amino group of the Lysine side chain with (gamma-Glu)2-CO-(CH2)16-CO2H; SITE) [Example 414] is in?
Result: B
